- System: K-562 cells
Reported log10 of GI50 values follow for various molecules
Log scale reminder: GI50 in nM, then log10 taken.

Reference set, count: 5
COc1ncc(-c2nc3c(n2C(C)C)C(c2ccc(Cl)cc2)N(c2cc(C)c4onc(C)c4c2)C3=O)c(OC)n1 (stereo not drawn) [Example 34]; 2.34
Cc1cc(N2C(=O)c3nc(C4CCOCC4)n(C4COC4)c3C2c2ccc(Cl)cc2)cc2c1nnn2C (stereo not drawn) [Example 105]; 1.96
Cc1cc(N2C(=O)c3nc(C)n(C4COC4)c3C2c2ccc(Cl)cc2)cc2c1nnn2C (stereo not drawn) [Example 94]; 2.43
Cc1cc(N2C(=O)c3[nH]c(C4CC4)nc3C2c2ccc(Cl)cc2)cn(C)c1=O (stereo not drawn) [Example 46]; 2.70
COc1ccc(-c2nc3c([nH]2)[C@@H](c2ccc(Cl)cc2)N(c2cc(OC)c4nnc(C)n4c2)C3=O)cn1 [Example 126]; 3.36

Report log10 of GI50 for Cc1cc(N2C(=O)c3nc(C4=CCCN(C)C4)n(C(C)C)c3[C@H]2c2ccc(Cl)cc2)cn2c(C)nnc12 [Example 85] tested on K-562 cells.
2.44

* * *

- assayedSystem: BRD2 (His-Brd2(60-472)) (Homo sapiens (Human))
- Sequence (P25440 60-472): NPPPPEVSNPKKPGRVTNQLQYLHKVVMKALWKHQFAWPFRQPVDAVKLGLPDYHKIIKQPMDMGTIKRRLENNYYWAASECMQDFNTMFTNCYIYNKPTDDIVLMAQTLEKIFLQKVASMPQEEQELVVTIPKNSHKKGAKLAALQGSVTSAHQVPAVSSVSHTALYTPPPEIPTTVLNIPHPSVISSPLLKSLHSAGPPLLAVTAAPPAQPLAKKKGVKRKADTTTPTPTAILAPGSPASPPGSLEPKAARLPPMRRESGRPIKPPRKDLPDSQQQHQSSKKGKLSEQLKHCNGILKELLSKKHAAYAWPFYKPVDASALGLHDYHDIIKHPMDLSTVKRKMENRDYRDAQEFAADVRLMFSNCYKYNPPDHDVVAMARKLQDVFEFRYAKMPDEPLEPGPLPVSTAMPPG
propertyLabel: pIC50
Just the number, please; pIC50 means minus log10 of the concentration in mol/L.

Reference set, count: 3
Cc1cc(N2C(=O)c3nc(C4CC4)n(C(C)C)c3C2c2ccc(Cl)cc2)cn(C)c1=O (centres unmarked) [Example 28]; 6.98
COc1cc(N2C(=O)c3nc(C4CCOCC4)n(C(C)C)c3[C@H]2c2ccc(Cl)cc2)cc2c1nnn2C [Example 108]; 6.74
Cc1cc(N2C(=O)c3nc(C)n(C(C)C)c3C2c2ccc(Cl)cc2)cc2c1nnn2C (racemic) [Example 2]; 7.48

Report pIC50 for COc1ncccc1-c1nc2c(n1C(C)C)C(c1ccc(Cl)cc1)N(c1cc(C)c3nnc(C(F)F)n3c1)C2=O (centres unmarked) [Example 132] tested on BRD2 (His-Brd2(60-472)) (Homo sapiens (Human)).
7.72

Now consider COc1ccc(-c2nc3c(n2C(C)C)C(c2ccc(Cl)cc2)N(c2cc(C)c4nnc(C(F)F)n4n2)C3=O)cn1 (centres unmarked) [Example 149] and answer again.
7.66

Now consider Cc1cc(N2C(=O)c3nc(C4=CCOCC4)n(C(C)C)c3[C@H]2c2ccc(Cl)cc2)cn2c(C)nnc12 [Example 84] and answer again.
7.44

Now consider Cc1cc(N2C(=O)c3nc(-c4ncco4)n(C(C)C)c3C2c2ccc(Cl)cc2)cn2c(C)nnc12 (centres unmarked) [Example 15] and answer again.
7.32

Now consider COc1ncc(-c2nc3c([nH]2)C(c2ccc(Cl)cc2)N(c2cc(C)c4nnc(C)n4c2)C3=O)c(OC)n1 (centres unmarked) [Example 124] and answer again.
7.03

* * *

Reported pIC50 values follow for various compounds
- assayedSystem: nuclear BRD4-NUT foci in HCC2494 NUT midline carcinoma cells (Homo sapiens, UniProt O60885)
- testDescription: cell-based
Just the number, please; pIC50 means minus log10 of the concentration in mol/L.

Reference set, count: 5
COc1cc(N2C(=O)c3nc(C4=CCOCC4)n(C(C)C)c3C2c2ccc(Cl)cc2)cn2c(C)nnc12 (stereo not shown); 5.88
Cc1cc(N2C(=O)c3c(nc(C)n3C(C)C)[C@H]2c2ccc(Cl)cc2)cc2c1nnn2C; 8.47
Cc1cc(N2C(=O)c3nc(-c4nccs4)n(C4CC4)c3C2c2ccc(Cl)cc2)cn(C)c1=O (stereo not shown); 7.28
Cc1cc(N2C(=O)c3c(nc(C)n3C(C)C)C2c2ccc(Cl)cc2)cc2c1nnn2C (racemic); 7.91
COc1ccc(-c2nc3c(n2C(C)C)C(c2ccc(Cl)cc2)N(c2cc(OC)c4nnc(C)n4c2)C3=O)cn1 (stereo not shown); 6.15

Then there is this compound:
I'd like to know its pIC50. The compound in question is Cc1cc(N2C(=O)c3nc(C4=CCCN(C)C4)n(C(C)C)c3C2c2ccc(Cl)cc2)cn2c(C)nnc12 (stereo not shown)
6.43

* * *

- Tested on: K-562 cells
- testDescription: Cell growth inhibition assay (CellTiter-Glo), K-562
- assayContext: K-562 cells, total growth inhibition, CellTiter-Glo
propertyLabel: K-562 TGI

Reference set, count: 8
Cc1cc(N2C(=O)c3nc(C)n(C4COC4)c3C2c2ccc(Cl)cc2)cc2c1nnn2C (stereo not drawn) [Example 94]; >10 µM
COc1cc(N2C(=O)c3nc(C4CCOCC4)n(C(C)C)c3C2c2ccc(Cl)cc2)cc2c1nnn2C (racemic) [Example 64]; >10 µM
COc1cc(N2C(=O)c3nc(C4CC4)n(C(C)C)c3C2c2ccc(Cl)cc2)cn2c(C)nnc12 (stereo not drawn) [Example 17]; >10 µM
Cc1cc(N2C(=O)c3nc(C)n(C(C)C)c3C2c2ccc(Cl)cc2)nn2c(C)nnc12 (racemic) [Example 18]; >10 µM
Cc1cc(N2C(=O)c3nc(C4=CCOCC4)n(C(C)C)c3[C@H]2c2ccc(Cl)cc2)nc2c1nnn2C [Example 164]; >10 µM
Cc1cc(N2C(=O)c3nc(C4CCOCC4)n(C(C)C)c3C2c2ccc(Cl)cc2)cn2c(C)nnc12 (stereo not drawn) [Example 86]; >10 µM
COc1cc(N2C(=O)c3nc(C4CCOCC4)n(C(C)C)c3[C@H]2c2ccc(Cl)cc2)cc2c1nnn2C [Example 108]; >10 µM
COc1ccc(-c2nc3c([nH]2)[C@@H](c2ccc(Cl)cc2)N(c2cc(C)c(=O)n(C)c2)C3=O)cn1 [Example 5]; >10 µM

I'd like to know its K-562 TGI. The compound in question is Cc1cc(N2C(=O)c3nc(C4CCNCC4)n(C(C)C)c3C2c2ccc(Cl)cc2)cn2c(C)nnc12 (stereo not drawn) [Example 75]
>10 µM

Now consider COc1ccc(-c2nc3c(n2C(C)C)C(c2ccc(Cl)cc2)N(c2cc(C)c4nnc(C(F)F)n4n2)C3=O)cn1 (stereo not drawn) [Example 149] and answer again.
>10 µM

Now consider Cc1cc(N2C(=O)c3nc(C4CC4)n(C(C)C)c3C2c2ccc(Cl)cc2)cn(C)c1=O (stereo not drawn) [Example 28] and answer again.
>10 µM

Now consider COc1cc(N2C(=O)c3nc(C)n(C(C)C)c3C2c2ccc(Cl)cc2)cc2c1nnn2C (stereo not drawn) [Example 63] and answer again.
>10 µM

Now consider Cc1cc(N2C(=O)c3nc(C4=CCN(C(=O)OC(C)C)CC4)n(C(C)C)c3C2c2ccc(Cl)cc2)cn2c(C)nnc12 (stereo not drawn) [Example 71] and answer again.
>10 µM

Now consider COc1ccc(-c2nc3c([nH]2)[C@@H](c2ccc(Cl)cc2)N(c2cc(C)c4nnc(C)n4c2)C3=O)cn1 [Example 129] and answer again.
>10 µM

Now consider CCn1c(-c2ccnn2C)nc2c1C(=O)N(c1cc(C)c(=O)n(C)c1)C2c1ccc(Cl)cc1 (stereo not drawn) [Example 42] and answer again.
>10 µM

* * *

- Test system: K-562 cells
- testDescription: Cell growth inhibition assay (CellTiter-Glo), K-562;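 also: cellular ATP measured by luminescence after 4 days of exposure, 3-fold dilution series from 10 µM, DMSO vehicle-treated cells define 100%, cell-free medium wells −100%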
- assayContext: K-562 cells, total growth inhibition, CellTiter-Glo
propertyLabel: K-562 TGI

Reference set, count: 5
COc1ccc(-c2nc3c([nH]2)C(c2ccc(Cl)cc2)N(c2cc(C)c4nnc(C(F)F)n4c2)C3=O)cn1 (stereo not shown); >10 µM
COc1ncccc1-c1nc2c(n1C(C)C)C(c1ccc(Cl)cc1)N(c1cc(C)c3nnn(C)c3c1)C2=O (racemic); >10 µM
Cc1cc(N2C(=O)c3c(nc(C)n3C(C)C)[C@H]2c2ccc(Cl)cc2)cc2c1nnn2C; >10 µM
Cc1cc(N2C(=O)c3nc(C4=CCNCC4)n(C(C)C)c3C2c2ccc(Cl)cc2)cn2c(C)nnc12 (stereo not shown); >10 µM
COc1ccc(-c2nc3c(n2C(C)C)C(c2ccc(Cl)cc2)N(c2cc(C)c4nnn(C)c4c2)C3=O)cn1 (stereo not shown); >10 µM

Report K-562 TGI for Cc1cc(N2C(=O)c3[nH]c(C4CC4)nc3C2c2ccc(Cl)cc2)cn(C)c1=O (stereo not shown) tested on K-562 cells.
>10 µM

Now consider COC(=O)N1CCC(c2nc3c(n2C(C)C)C(c2ccc(Cl)cc2)N(c2cc(C)c4nnc(C)n4c2)C3=O)CC1 (stereo not shown) and answer again.
>10 µM

* * *

Assay system BRD4 (His-Brd4(44-477)) (Homo sapiens (Human), UniProt O60885); read-out recorded as IC50.

Reference set, count: 3
CCn1c(C)nc2c1[C@@H](c1ccc(Cl)cc1)N(c1cc(C)c3nnn(C)c3c1)C2=O [Example 120]; 20.5 nM
Cc1nc2c([nH]1)C(c1ccc(Cl)cc1)N(c1cc(C)c3nnc(C(F)F)n3c1)C2=O (centres unmarked) [Example 139]; 32.5 nM
COc1ncc(-c2nc3c(n2C)C(c2ccc(Cl)cc2)N(c2cc(OC)c4nnc(C)n4c2)C3=O)c(OC)n1 (centres unmarked) [Example 54]; 59 nM

I'd like to know its IC50. The molecule in question is Cc1cc(N2C(=O)c3nc(C)n(C(C)C)c3[C@H]2c2ccc(Cl)cc2)cn2c(C(F)F)nnc12 [Example 146]
< 11 nM

Now consider Cc1cc(N2C(=O)c3nc(C4CCOCC4)n(C4COC4)c3C2c2ccc(Cl)cc2)cc2c1nnn2C (centres unmarked) [Example 105] and answer again.
13 nM

Now consider Cc1cc(N2C(=O)c3nc(C4CCN(C)CC4)n(C(C)C)c3C2c2ccc(Cl)cc2)nn2c(C)nnc12 (centres unmarked) [Example 169] and answer again.
19 nM

Now consider Cc1cc(N2C(=O)c3nc(C4CCOCC4)n(C(C)C)c3C2c2ccc(Cl)cc2)nn2c(C)nnc12 (centres unmarked) [Example 101] and answer again.
23 nM

Now consider Cc1cc(N2C(=O)c3nc(C4CCOC4)n(C(C)C)c3[C@H]2c2ccc(Cl)cc2)nn2c(C)nnc12 (some centres unmarked) [Example 171] and answer again.
12 nM

Now consider Cc1cc(N2C(=O)c3nc(C4=CCOCC4)n(C(C)C)c3C2c2ccc(Cl)cc2)nc2c1nnn2C (centres unmarked) [Example 160] and answer again.
< 11 nM

Now consider Cc1cc(N2C(=O)c3nc(C)n(C(C)C)c3C2c2ccc(Cl)cc2)cc2c1nnn2C (racemic) [Example 2] and answer again.
20 nM

Now consider COc1ncccc1-c1nc2c(n1C(C)C)C(c1ccc(Cl)cc1)N(c1cc(C)c3nnc(C(F)F)n3c1)C2=O (centres unmarked) [Example 132] and answer again.
< 11 nM

Now consider CCOC(=O)N1CC=C(c2nc3c(n2C(C)C)C(c2ccc(Cl)cc2)N(c2cc(C)c4nnc(C)n4c2)C3=O)CC1 (centres unmarked) [Example 70] and answer again.
17.5 nM

Now consider COc1ccc(-c2nc3c(n2C(C)C)C(c2ccc(Cl)cc2)N(c2cc(OC)c4nnc(C)n4c2)C3=O)cn1 (centres unmarked) [Example 52] and answer again.
35 nM

Now consider COc1cc(N2C(=O)c3nc(C4CC4)n(C)c3C2c2ccc(Cl)cc2)cn2c(C)nnc12 (centres unmarked) [Example 56] and answer again.
130 nM

Now consider COc1cc(C(F)(F)F)ccc1-c1nc2c([nH]1)C(c1ccc(Cl)cc1)N(c1cc(C)c3nnc(C)n3c1)C2=O (centres unmarked) [Example 136] and answer again.
30 nM

Now consider Cc1cc(N2C(=O)c3nc(C4=CC(C)(C)NC(C)(C)C4)n(C(C)C)c3C2c2ccc(Cl)cc2)cn2c(CF)nnc12 (centres unmarked) [Example 90] and answer again.
30 nM

Now consider Cc1cc(N2C(=O)c3nc(C4CCN(C)CC4)n(C(C)C)c3C2c2ccc(Cl)cc2)cn2c(C)nnc12 (centres unmarked) [Example 98] and answer again.
15 nM

Now consider Cc1cc(N2C(=O)c3nc(C4=CCN(C)CC4)n(C(C)C)c3C2c2ccc(Cl)cc2)cc2c1nnn2C (centres unmarked) [Example 78] and answer again.
28 nM

Now consider Cc1cc(N2C(=O)c3nc(C4CCN(CC(C)(C)C)CC4)n(C(C)C)c3C2c2ccc(Cl)cc2)cn2c(C)nnc12 (centres unmarked) [Example 104] and answer again.
24.5 nM

Now consider COc1ccc(-c2nc3c(n2C)C(=O)N(c2cc(C)c(=O)n(C)c2)[C@@H]3c2ccc(Cl)cc2)cn1 [Example 7] and answer again.
56 nM
